Data credit: patent US20240116985A1

Target: beta-catenin/TCF4 engagement (Homo sapiens, UniProt P35222)
Construct: expressed in transfected cells; host or cells: HEK293
Sequence (P35222 whole entry): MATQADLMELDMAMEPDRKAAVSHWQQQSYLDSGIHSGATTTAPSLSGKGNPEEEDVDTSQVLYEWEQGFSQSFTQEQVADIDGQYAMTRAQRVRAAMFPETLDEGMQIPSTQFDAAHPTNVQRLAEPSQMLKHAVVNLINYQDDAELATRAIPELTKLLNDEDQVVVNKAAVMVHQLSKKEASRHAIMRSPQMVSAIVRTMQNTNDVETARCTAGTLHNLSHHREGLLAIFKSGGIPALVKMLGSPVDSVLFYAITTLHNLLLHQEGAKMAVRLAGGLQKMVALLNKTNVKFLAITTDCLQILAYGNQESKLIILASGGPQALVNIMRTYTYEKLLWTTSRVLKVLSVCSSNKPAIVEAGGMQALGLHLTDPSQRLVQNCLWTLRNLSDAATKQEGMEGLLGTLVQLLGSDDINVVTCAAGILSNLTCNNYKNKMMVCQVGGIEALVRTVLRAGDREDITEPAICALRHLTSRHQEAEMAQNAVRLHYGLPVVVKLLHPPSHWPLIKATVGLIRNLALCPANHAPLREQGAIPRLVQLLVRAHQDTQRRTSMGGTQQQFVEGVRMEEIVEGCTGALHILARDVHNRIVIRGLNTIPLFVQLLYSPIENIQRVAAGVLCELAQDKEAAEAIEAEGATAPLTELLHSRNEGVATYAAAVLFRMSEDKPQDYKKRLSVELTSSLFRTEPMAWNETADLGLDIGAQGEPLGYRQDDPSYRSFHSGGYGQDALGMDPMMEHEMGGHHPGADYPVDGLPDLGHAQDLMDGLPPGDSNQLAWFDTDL
Experiment: Nano-BRET target engagement assay (B-cat-Halo & TCF4-Luc in HEK293 cells)
Type: cell-based
Conditions: absolute IC50; read-out: NanoBRET Abs IC50
OUTCOME_MEASURE: pIC50
Keep in mind that pIC50 stands for -log10 of concentration in molar terms.

QUERY: Give recorded pIC50. CC(=O)N1CCC[C@]12CC=CCCCC1(CCCC=CCCCOC(=O)N3CC[C@@](C(=O)N[C@@H](Cc4ccccc4C(F)(F)F)C(=O)N[C@@H](Cc4csc5ccccc45)C(=O)N[C@@H](CCCN4CCOCC4)C(N)=O)(C3)NC(=O)[C@H](CC(C)C)NC(=O)[C@H](Cc3ccccc3)NC(=O)[C@H](C)NC(=O)[C@H](C)NC(=O)[C@H](Cc3cccc(C(=O)O)c3)NC(=O)[C@H](CC(=O)O)NC1=O)NC(=O)[C@H](CC(C)(C)C)NC(=O)[C@H](CC(=O)O)NC2=O (stereo partly shown) [I-1610]
RESULT: 5.39
